- Tested on: Clostridium sporogenes DSM 1664
- Assay procedure: fold change of Tryptamine concentration vs plate DMSO controls (fold change (ratio)); higher = more amine produced, active = hit call of the paper (significant change in both replicates, either direction)
- Recorded conditions: incubation time: 27 h, anaerobic, 37 °C
Counter-ions that a name gives are not always drawn.
We use 1 as the dividing line for fold change of Tryptamine concentration: on or above the line is yes, below is no.

Compound	Label
N[C@@H](CCC(=O)N[C@@H](CS)C(=O)NCC(=O)O)C(=O)O [Glutathione] (20 µM)	yes

# check: fold change of Tryptamine concentration of CCc1nn(CCCN2CCN(c3cccc(Cl)c3)CC2)c(=O)n1CCOc1ccccc1 [Nefazodone hydrochloride] (20 µM) is greater than or equal to 1
no

---

- System: Escherichia coli IAI1
- Assay procedure: growth (OD595) fold change vs plate DMSO controls (fold change (ratio)); higher = more growth
- Recorded conditions: incubation time: 27 h, anaerobic, 37 °C
Counter-ions that a name gives are not always drawn.
We begin with a simple list: items and their reported growth.
Would you mind answering with just the numeric figure?

Example compounds with recorded growth:
Compound	growth
Clc1ccc2c(c1)CCc1cccnc1C2=C1CCNCC1 [Desloratadine] (20 µM)	0.981
c1ccc2cc3ccccc3cc2c1 [Anthracene] (20 µM)	1.04
CCCCCOC(=O)Nc1nc(=O)n([C@@H]2O[C@H](C)[C@@H](O)[C@H]2O)cc1F [Capecitabine] (20 µM)	0.991
CN(C)CCC=C1c2ccccc2COc2ccccc21 [Doxepin hydrochloride] (20 µM)	0.995

If you can, please state the reported growth value of Cc1c(Cl)cccc1Nc1ccccc1C(=O)O [Tolfenamic acid] (20 µM) .
1.01

And for c1ccc2c(c1)ccc1ccccc12 [Phenanthrene] (20 µM) ?
0.992

And for NC(N)=Nc1nc(CSCC/C(N)=N/S(N)(=O)=O)cs1 [Famotidine] (20 µM) ?
0.928

And for CC(C)(C)NC[C@H](O)COc1ccccc1C1CCCC1 [Penbutolol sulfate] (20 µM) ?
1.21

And for O=C(O)C[C@H](O)C[C@H](O)/C=C/c1c(C2CC2)nc2ccccc2c1-c1ccc(F)cc1 [Pitavastatin calcium] (20 µM) ?
1.01

---

- System: Ruminococcus gnavus DSM 108212
- Assay procedure: fold change of Tryptamine concentration vs plate DMSO controls (fold change (ratio)); higher = more amine produced, active = hit call of the paper (significant change in both replicates, either direction)
- Recorded conditions: incubation time: 27 h, anaerobic, 37 °C
Structures can show the parent of a compound that is named as a salt.
Measurement type: fold change of Tryptamine concentration

Molecule	Test system	fold change of Tryptamine concentration
CCOc1nc2cccc(C(=O)O)c2n1Cc1ccc(-c2ccccc2-c2nnn[nH]2)cc1 [Candesartan] (20 µM)	Ruminococcus gnavus DSM 108212	0.975 (inactive)
COC(=O)Nc1nc2cc(C(=O)c3ccccc3)ccc2[nH]1 [Mebendazole] (20 µM)	Ruminococcus gnavus DSM 108212	1.01 (inactive)
C#CCN(C)Cc1ccccc1 [Pargyline hydrochloride] (20 µM)	Ruminococcus gnavus DSM 108212	1.01 (inactive)
Oc1c(Cl)cc(Cl)c(Cl)c1Cc1c(O)c(Cl)cc(Cl)c1Cl (20 µM)	Ruminococcus gnavus DSM 108212	0.0717 (active)

Turning now to a further record.
If you can, please state the reported fold change of Tryptamine concentration value of Nc1ccc(S(=O)(=O)NC(=O)c2ccccc2)cc1 [Sulfabenzamide] (20 µM) .
1.04 (inactive)

---

- Tested on: Ruminococcus gnavus DSM 108212
- Assay procedure: fold change of 2-Phenylethylamine concentration vs plate DMSO controls (fold change (ratio)); higher = more amine produced, active = hit call of the paper (significant change in both replicates, either direction)
- Recorded conditions: incubation time: 27 h, anaerobic, 37 °C
Where a name gives a salt, the structure may show the parent alone.
We use 1 as the dividing line for fold change of 2-Phenylethylamine concentration: on or above the line is 1.0, below is 0.0.

These solved cases illustrate the format of a correct answer.
Compound	Label
Nc1nc(=O)c2c([nH]1)NC[C@@H](CNc1ccc(C(=O)N[C@@H](CCC(=O)O)C(=O)O)cc1)N2C=O [Folinic acid calcium salt] (20 µM)	0.0
Nc1nc(/C(=C/CC(=O)O)C(=O)N[C@@H]2C(=O)N3C(C(=O)O)=CCS[C@H]23)cs1 [Ceftibuten] (20 µM)	1.0
Cc1ncc([N+](=O)[O-])n1CC(O)CCl (stereo not given) [Ornidazole] (20 µM)	0.0

# check: fold change of 2-Phenylethylamine concentration of CCOc1ccccc1C(N)=O [Ethenzamide] (20 µM) is greater than or equal to 1
1.0

And for OC[C@H]1O[C@@H](n2cnc3cncnc32)[C@H](O)[C@@H]1O [Nebularine] (20 µM) ?
0.0

And for Cc1c(Cl)cccc1Nc1ccccc1C(=O)O [Tolfenamic acid] (20 µM) ?
0.0

And for CC(=O)O[C@H]1C[C@@H]2CC[C@@H]3[C@H](CC[C@@]4(C)[C@H]3C[C@H]([N+]3(C)CCCCC3)[C@@H]4OC(C)=O)[C@@]2(C)C[C@@H]1N1CCCCC1 [Vecuronium bromide] (20 µM) ?
1.0

---

- Tested on: Klebsiella aerogenes DSM 30053
- Assay procedure: fold change of Histamine concentration vs plate DMSO controls (fold change (ratio)); higher = more amine produced, active = hit call of the paper (significant change in both replicates, either direction)
- Recorded conditions: incubation time: 27 h, anaerobic, 37 °C
Where a name gives a salt, the structure may show the parent alone.
Measurement type: fold change of Histamine concentration
Would you mind answering with just the numeric figure?

Example compounds with recorded fold change of Histamine concentration:
Compound	fold change of Histamine concentration
CCC(=O)O[C@]1(C(=O)CCl)[C@@H](C)C[C@H]2[C@@H]3CCC4=CC(=O)C=C[C@]4(C)[C@@]3(F)[C@@H](O)C[C@@]21C [Clobetasol propionate] (20 µM)	0.98
Cc1ccc2c(c1)c1c3n2CCNC3CCC1 (configuration not stated) [Pirlindole mesylate] (20 µM)	0.963
COc1ccc(C2C(=O)c3ccccc3C2=O)cc1 [Anisindione] (20 µM)	1.03

If you can, please state the reported fold change of Histamine concentration value of CC(C)(C(=O)O)c1ccc(C(O)CCCN2CCC(C(O)(c3ccccc3)c3ccccc3)CC2)cc1 (configuration not stated) [Fexofenadine hydrochloride] (20 µM) .
0.876

And for CCC(NC(C)C)C(O)c1ccc(O)c2[nH]c(=O)ccc12 (configuration not stated) [Procaterol hydrochloride] (20 µM) ?
1.01

And for O=C(O)Cc1ccccc1Oc1ccc(Cl)cc1Cl [Fenclofenac] (20 µM) ?
1.01

And for COCC1=C(C(=O)OC(C)OC(=O)OC(C)C)N2C(=O)[C@@H](NC(=O)/C(=N\OC)c3csc(N)n3)[C@H]2SC1 (some centres not stated) [Cefpodoxime proxetil] (20 µM) ?
1.06

---

- System: Clostridium sporogenes DSM 1664
- Assay procedure: fold change of Tryptamine concentration vs plate DMSO controls (fold change (ratio)); higher = more amine produced, active = hit call of the paper (significant change in both replicates, either direction)
- Recorded conditions: incubation time: 27 h, anaerobic, 37 °C
Structures can show the parent of a compound that is named as a salt.
We use 0.9 as the dividing line for fold change of Tryptamine concentration: on or above the line is criterion met, below is criterion not met.

These solved cases illustrate the format of a correct answer.
Compound	Test system	Label
OC(CNCC(O)C1CCc2cc(F)ccc2O1)C1CCc2cc(F)ccc2O1 (stereo not drawn) [Nebivolol hydrochloride] (20 µM)	Clostridium sporogenes DSM 1664	criterion met
Cn1c(=O)c2c(ncn2C)n(C)c1=O [Caffeine] (20 µM)	Clostridium sporogenes DSM 1664	criterion met

# check: fold change of Tryptamine concentration of OCC(O)CN1CCN(c2ccccc2)CC1 (stereo not drawn) [Dropropizine] (20 µM) is greater than or equal to 0.9
criterion met

And for NC(=O)c1cc[n+](CC2=C(C(=O)O)N3C(=O)[C@@H](NC(=O)C(c4ccccc4)S(=O)(=O)[O-])[C@H]3SC2)cc1 (stereo partly drawn) [Cefsulodin Sodium Salt Hydrate] (20 µM) ?
criterion not met

And for Cc1nc2ccccn2c(=O)c1CCN1CCC(C(=O)c2ccc(F)cc2)CC1 [Pirenperone] (20 µM) ?
criterion met

---

We begin with a simple list: items and their reported fold change of Tryptamine concentration.
- Tested on: Clostridium sporogenes DSM 1664
- Assay procedure: fold change of Tryptamine concentration vs plate DMSO controls (fold change (ratio)); higher = more amine produced, active = hit call of the paper (significant change in both replicates, either direction)
- Recorded conditions: incubation time: 27 h, anaerobic, 37 °C
Structures can show the parent of a compound that is named as a salt.
Would you mind answering with just the numeric figure?

If you can, please state the reported fold change of Tryptamine concentration value of CNNCc1ccc(C(=O)NC(C)C)cc1 [Procarbazine hydrochloride] (20 µM) .
1.02

And for CCCN1CCCC[C@H]1C(=O)Nc1c(C)cccc1C [Ropivacaine hydrochloride] (20 µM) ?
1.13

And for O=C(O)/C=C/c1ccc(Cn2ccnc2)cc1 [Ozagrel hydrochloride] (20 µM) ?
1.01

And for C1CCC(C(CC2CCCCN2)C2CCCCC2)CC1 (stereo unspecified) [Perhexiline maleate] (20 µM) ?
1.03

And for O=c1cc(-c2ccc(O)c(O)c2)oc2cc(O)cc(O)c12 [Luteolin] (20 µM) ?
0.776

And for CC[N+](C)(CC)CCOC(=O)C1c2ccccc2Oc2ccccc21 [Methantheline bromide] (20 µM) ?
0.999

And for COc1ccc(C2CNC(=O)C2)cc1OC1CCCC1 (stereo unspecified) [Rolipram] (20 µM) ?
1.03
